Origin of the recorded values: the supplement of paper PMC9732359

measurement.protocol: protein stability index of a GFP-peptide fusion (yeast GPS) (PSI 1-4); higher = more stable; sorted into four equal gates, so the index is relative within each strain
assay.conditions: doa10∆
Known protein stability index of a selection of sequences

Take a look at these entries with their results.
construct.sequence: VLSDQVGSEKVLQDLRL [YJL039C/NUP192]
reported.result: 3.12
--
construct.sequence: SLSAYNLTDEGYQWGEE [PRP8]
reported.result: 3.33
--
construct.sequence: FGLGYGDVGKNHITEFP [RPC31]
reported.result: 3.17
--
construct.sequence: VIEAKINHEDGFIETTE [RPN3]
reported.result: 1.17
--
construct.sequence: STKLSRPFDSFGKLLQA [ITC1]
reported.result: 2.42
--
construct.sequence: YFWHKIWRKVPGDVLDK [SNU114]
reported.result: 1.15
--
construct.sequence: IIMQADLALKMGVPIYG [FAS2]
reported.result: 1.63
--
construct.sequence: ERKRKSVRGAIVGPDLA [RPS6A]
reported.result: 3.38
--
construct.sequence: LHYDKDYNLRIYCYFLI [SSN8]
reported.result: 1.28
--
construct.sequence: RLDNLQDIKKAKRVENF [DSN1]
reported.result: 1.52

Fill blank: measured protein stability index of the sequence SDELHNQSTIYEDEELS [LIN1] is ____.
3

Field entry: GTSVISMKYDNGVIIAA [PRE4]
2.05

Field entry: SPVTGDNSPSEDFMDIP [SNF2]
3.21

----------
Known protein stability index of a selection of sequences
measurement.protocol: protein stability index of a GFP-peptide fusion (yeast GPS) (PSI 1-4); higher = more stable; sorted into four equal gates, so the index is relative within each strain
assay.conditions: ubr1∆
Keep it simple and answer with nothing but the number.

Fill blank: measured protein stability index of the sequence RAGVTHVLSRLSYISAL [RET1] is ____.
1.23

Field entry: ISTRERDYLVDTLKLRE [RRP6]
3.17

Field entry: DIFITPTPVVTISEKEQ [SSN2]
1.67

Field entry: DEIHIPAPSKPVIDYEL [BRR2]
2.78

Field entry: TYVITKNGKIYLKHNSI [RET1]
2.64

Field entry: EKKILNQFLKIKKKRKE [SMC1]
3.33

Field entry: PGGAASKSVPTPSLPIA [SNF5]
3.06

Field entry: EKIAAGYMQKPVYATIG [PRP28]
2.67

Field entry: SSAAILGLGIAFAGSKN [RPN1]
1.34

Field entry: ELLPHYPFVTNDDIEWM [YJR042W/NUP85]
2.96

Field entry: SIVLDSEHFDVNDNPDI [DIS3]
3.1

Field entry: LYDNFVSKFYDKINQLS [RPN9]
2.43

Field entry: TIKVVKRSMDAEQLGHA [RPP1]
3.38

Field entry: WRLLFIDKFIMVVQKYK [GRR1]
2.38

Field entry: GKELDSLDLNNLELGGL [PGD1]
3.24

Field entry: SQVVETHKVTDIYSHEY [YMR129W/POM152]
2.83

Field entry: TMLENITLRGVENIERV [RPO21]
2.69

Field entry: CTEAGLLALRERRMQVT [RPT2]
2.7

----------
measurement.protocol: protein stability index of a GFP-peptide fusion (yeast GPS) (PSI 1-4); higher = more stable; sorted into four equal gates, so the index is relative within each strain
assay.conditions: san1∆
Parameter threshold = 3. Response is 1 (yes) when protein stability index meets or exceeds it, else 0 (no).

The following sequences have reported results that may help.
construct.sequence: LAPTQLSAEYLVILKPD [SIN4]
answer.label: 0 (no)

construct.sequence: GGFTAYGGADYGEATSP [RPO21]
answer.label: 0 (no)

construct.sequence: DMKEYDSDKGSKLNELK [SMC2]
answer.label: 1 (yes)

Is the recorded value of protein stability index equal to or greater than 3 for this sequence? SLRSNVVVAETSPEKKD [YAR002W/NUP60]
0 (no)

Field entry: WLETYSENRDKFLQEFI [IRR1]
0 (no)
